inhibition at 10 µM: recorded values
- subjectOfTest: DNA gyrase (374 kDa Gyr A2B2 subunit from Staphylococcus aureus) (Staphylococcus aureus)
- Sequence (P0A0K8 whole entry): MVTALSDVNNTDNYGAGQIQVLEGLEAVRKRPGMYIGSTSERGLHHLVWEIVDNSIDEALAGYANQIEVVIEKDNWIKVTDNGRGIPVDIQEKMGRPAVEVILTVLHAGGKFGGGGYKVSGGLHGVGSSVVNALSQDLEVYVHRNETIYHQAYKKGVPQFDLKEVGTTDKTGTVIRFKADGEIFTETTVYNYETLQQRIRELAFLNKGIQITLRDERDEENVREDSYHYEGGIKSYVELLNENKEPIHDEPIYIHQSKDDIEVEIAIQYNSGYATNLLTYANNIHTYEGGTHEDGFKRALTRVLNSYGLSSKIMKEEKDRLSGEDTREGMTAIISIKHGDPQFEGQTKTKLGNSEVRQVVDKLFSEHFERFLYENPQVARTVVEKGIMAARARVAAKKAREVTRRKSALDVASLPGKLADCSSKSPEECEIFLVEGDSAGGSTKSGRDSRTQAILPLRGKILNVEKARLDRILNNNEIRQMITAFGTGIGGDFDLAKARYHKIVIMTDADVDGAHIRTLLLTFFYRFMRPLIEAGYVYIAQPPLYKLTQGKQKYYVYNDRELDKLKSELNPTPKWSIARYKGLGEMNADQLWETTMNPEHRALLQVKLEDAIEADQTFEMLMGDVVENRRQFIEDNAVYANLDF
- Sequence (P20831 whole entry, further chain): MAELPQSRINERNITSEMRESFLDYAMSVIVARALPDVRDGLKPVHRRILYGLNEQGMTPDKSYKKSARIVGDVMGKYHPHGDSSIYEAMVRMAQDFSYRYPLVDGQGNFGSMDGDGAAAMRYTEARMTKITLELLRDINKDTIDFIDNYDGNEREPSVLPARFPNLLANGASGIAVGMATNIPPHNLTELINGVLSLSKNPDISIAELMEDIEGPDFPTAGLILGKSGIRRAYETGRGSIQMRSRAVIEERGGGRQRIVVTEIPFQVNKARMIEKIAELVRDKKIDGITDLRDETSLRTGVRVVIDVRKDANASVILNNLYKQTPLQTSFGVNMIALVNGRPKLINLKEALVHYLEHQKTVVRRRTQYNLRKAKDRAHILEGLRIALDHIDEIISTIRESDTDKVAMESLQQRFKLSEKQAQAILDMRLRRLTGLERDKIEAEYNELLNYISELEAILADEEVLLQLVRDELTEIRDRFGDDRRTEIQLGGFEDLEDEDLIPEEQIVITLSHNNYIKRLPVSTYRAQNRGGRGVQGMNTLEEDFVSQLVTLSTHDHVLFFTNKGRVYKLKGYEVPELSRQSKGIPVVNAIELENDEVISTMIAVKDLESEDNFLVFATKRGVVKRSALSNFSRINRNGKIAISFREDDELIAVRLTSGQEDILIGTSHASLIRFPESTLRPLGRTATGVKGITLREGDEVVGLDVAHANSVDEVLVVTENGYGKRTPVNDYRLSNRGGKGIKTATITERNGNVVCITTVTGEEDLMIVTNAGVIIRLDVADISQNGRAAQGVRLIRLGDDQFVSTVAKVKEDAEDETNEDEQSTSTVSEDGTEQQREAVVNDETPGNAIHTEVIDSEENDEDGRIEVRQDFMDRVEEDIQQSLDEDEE
- testDetails: Gyrase ATPase Assay
- Format: biochemical
- conditionContext: 10 μM concentration; ATPase assay at 30° C., 0.9 mM ATP; average of duplicate values; read-out: Gyrase Inhibitory Activity (percent inhibition)
- Description: The ATP hydrolysis activity of DNA gyrase was measure by coupling the production of ADP through pyruvate kinase/lactate dehydrogenase to the oxidation of NADH. […] ATPase assays are carried out at 30° C. in buffered solutions containing 100 mM TRIS pH 7.6, 1.5 mM MgCl2, 50 mM KCl. […] The reaction is then started by the addition of ATP to a final concentration of 0.9 mM and the rate of NADH disappearance at 340 nanometers is measured over the course of 10 minutes. […]

compoundStructureString: CN(C)CCn1c(N)nc2cc(-c3cccnc3)ccc21
inhibition at 10 µM: < 50%

compoundStructureString: CCNC(=O)Nc1nc2cc(-c3cccnc3)cc(C)c2[nH]1
inhibition at 10 µM: > 75%

compoundStructureString: CCOC(=O)Nc1nc2cc(-c3cnc(NCCNC(=O)OC(C)(C)C)nc3)ccc2[nH]1
inhibition at 10 µM: > 75%

compoundStructureString: CCNC(=O)Nc1nc2cc(-c3cccnc3)c(OC)c(C)c2[nH]1
inhibition at 10 µM: 50 to 75%

----------
inhibition at 10 µM: recorded values
- subjectOfTest: DNA gyrase (374 kDa Gyr A2B2 subunit from Staphylococcus aureus) (Staphylococcus aureus)
- testDetails: Gyrase ATPase Assay
- Assay type: biochemical
- conditionContext: 10 μM concentration; ATPase assay at 30° C., 0.9 mM ATP; average of duplicate values; read-out: Gyrase Inhibitory Activity (percent inhibition)

compoundStructureString: CCNC(=O)Nc1nc2cc(-c3ccccc3)cc(OC)c2[nH]1
inhibition at 10 µM: 50 to 75%
//
compoundStructureString: CCNC(=O)Nc1nc2cc(-c3nnco3)ccc2[nH]1
inhibition at 10 µM: > 75%
//
compoundStructureString: CNc1nc2cc(-c3cccnc3)ccc2n1CCN(C)C
inhibition at 10 µM: < 50%

----------
- subjectOfTest: DNA gyrase (374 kDa Gyr A2B2 subunit from Staphylococcus aureus) (Staphylococcus aureus)
- testDetails: Gyrase ATPase Assay
- Format: biochemical
- conditionContext: 10 μM concentration; ATPase assay at 30° C., 0.9 mM ATP; average of duplicate values; read-out: Gyrase Inhibitory Activity (percent inhibition)
- Experimental: The ATP hydrolysis activity of DNA gyrase was measure by coupling the production of ADP through pyruvate kinase/lactate dehydrogenase to the oxidation of NADH. […] ATPase assays are carried out at 30° C. in buffered solutions containing 100 mM TRIS pH 7.6, 1.5 mM MgCl2, 50 mM KCl. […] The reaction is then started by the addition of ATP to a final concentration of 0.9 mM and the rate of NADH disappearance at 340 nanometers is measured over the course of 10 minutes. […]
reportedProperty: inhibition at 10 µM

compound: CCNC(=O)Nc1nc2cc(-c3cnc(NCC)nc3)ccc2[nH]1
recordedMeasurement: > 75%

compound: CCNC(=O)Nc1nc2cc(-c3ccc(F)nc3)ccc2[nH]1
recordedMeasurement: > 75%

compound: C=CCCCOc1ccc(-c2ccc3[nH]c(NC(=O)NCC)nc3c2)cn1
recordedMeasurement: > 75%

compound: CCOC(=O)Nc1nc2cc(-c3ccccc3)cc(Br)c2[nH]1
recordedMeasurement: > 75%

compound: CCNC(=O)Nc1nc2cc(-c3cnc(NCC(=O)O)nc3)ccc2[nH]1
recordedMeasurement: > 75%

compound: CCNC(=O)Nc1nc2cc(-c3ccc(CNC(=O)OC(C)(C)C)cc3)ccc2[nH]1
recordedMeasurement: > 75%

compound: CCOC(=O)Nc1nc2cc(-c3cccnc3)cc(Br)c2[nH]1
recordedMeasurement: > 75%

compound: CCNC(=O)Nc1nc2cc(-c3occc(=O)c3O)ccc2[nH]1
recordedMeasurement: 50 to 75%

compound: CCNC(=S)Nc1nc2cc(-c3cnc(NCC(=O)OC(C)(C)C)nc3)ccc2[nH]1
recordedMeasurement: > 75%

compound: CCNC(=O)Nc1nc2cc(-c3cccnc3)c(N3CCOCC3)cc2[nH]1
recordedMeasurement: > 75%

compound: CCOC(=O)Nc1nc2cc(-c3ccncc3)ccc2[nH]1
recordedMeasurement: > 75%

compound: CCNC(=O)Nc1nc2cc(-c3ccc(CNC(=O)OC(C)(C)C)nc3)ccc2[nH]1
recordedMeasurement: > 75%

compound: CCNC(=O)Nc1nc2cc(-c3cccc(F)c3F)ccc2[nH]1
recordedMeasurement: > 75%

compound: CCNC(=O)Nc1nc2cc(-n3cc(C(=O)O)cn3)ccc2[nH]1
recordedMeasurement: > 75%

compound: CCNC(=O)Nc1nc2cc(-c3cnc(N4CCC(O)CC4)nc3)ccc2[nH]1
recordedMeasurement: > 75%

compound: CCOC(=O)Nc1nc2cc(-c3ccc(OC)c(OC)c3)ccc2[nH]1
recordedMeasurement: 50 to 75%

compound: CCNC(=O)Nc1nc2nc(-n3cnc(C(=O)NC4CC4)c3)ccc2[nH]1
recordedMeasurement: > 75%

compound: CCNC(=O)Nc1nc2cc(-c3ccc(CNC(C)=O)nc3)ccc2[nH]1
recordedMeasurement: > 75%

compound: CCNC(=O)Nc1nc2cc(-c3cnc(N4CC(C)CC(C)C4)nc3)ccc2[nH]1 (stereo not shown)
recordedMeasurement: > 75%

compound: CCNC(=O)Nc1nc2cc(-n3cnc(C(=O)O)c3)ccc2[nH]1
recordedMeasurement: > 75%

compound: CCOC(=O)Nc1nc2cc(-c3cncnc3)ccc2[nH]1
recordedMeasurement: > 75%

compound: CN1CCCC1C(=O)Nc1nc2cc(-c3ccccc3)ccc2[nH]1 (stereo not shown)
recordedMeasurement: < 50%

compound: CCNC(=O)Nc1nc2cc(-c3cnc(N4CCCC4COC)nc3)ccc2[nH]1 (stereo not shown)
recordedMeasurement: > 75%

compound: CCNC(=O)Nc1nc2cc(-c3cnc(NCCc4ccccn4)nc3)ccc2[nH]1
recordedMeasurement: > 75%

compound: CCCc1cc(-c2ccccc2)cc2nc(NC(=O)OCC)[nH]c12
recordedMeasurement: < 50%

compound: CC(C)(C)OCC(Nc1ncc(-c2ccc3[nH]c(NC#N)nc3c2)cn1)C(=O)OC(C)(C)C (stereo not shown)
recordedMeasurement: < 50%

compound: CCNC(=O)Nc1nc2cc(-c3cccnc3)cc(O)c2[nH]1
recordedMeasurement: > 75%

compound: O=C(Nc1nc2cc(-c3ccccc3)cc(Br)c2[nH]1)N1CCCCC1
recordedMeasurement: < 50%

compound: CCOC(=O)Nc1nc2cc(-c3ccc(=O)[nH]c3)ccc2[nH]1
recordedMeasurement: < 50%

compound: CCNC(=O)Nc1nc2cc(-c3ccccc3)cc(Br)c2[nH]1
recordedMeasurement: > 75%

compound: CCNC(=O)Nc1nc2cc(-c3cccnc3)c(F)cc2[nH]1
recordedMeasurement: > 75%
